Tested on: Mycobacterium tuberculosis Erdman (autoluminescent)
Assay method text: AUC25, normalised area under dose response up to IC25 (three-drug combination) (fraction (0-1)); higher = more potent at low dose
Recorded conditions: in vitro model: dormancy (butyrate + nitrate, low O2); time point: constant (~7 days, model-specific)
Items are presented alongside their recorded AUC25.
Observed property: AUC25

| Compound | Observed property | Experimental value |
| --- | --- | --- |
| NNC(=O)c1ccncc1 [isoniazid] + O=[N+]([O-])c1cn2c(n1)OC[C@@H](OCc1ccc(OC(F)(F)F)cc1)C2 [pretomanid] + CO[C@H]1/C=C/O[C@@]2(C)Oc3c(C)c(O)c4c(O)c(c(/C=N/N5CCN(C6CCCC6)CC5)c(O)c4c3C2=O)NC(=O)/C(C)=C\C=C\[C@H](C)[C@H](O)[C@@H](C)[C@@H](O)[C@@H](C)[C@H](OC(C)=O)[C@@H]1C [rifapentine] | AUC25 | 0.0593 |
| CC[C@@H](CO)NCCN[C@@H](CC)CO [ethambutol] + CC(=O)NC[C@H]1CN(c2ccc(N3CCOCC3)c(F)c2)C(=O)O1 [linezolid] + NC(=O)c1cnccn1 [pyrazinamide] | AUC25 | 0.107 |
| CC(C)/N=c1\cc2n(-c3ccc(Cl)cc3)c3ccccc3nc-2cc1Nc1ccc(Cl)cc1 [clofazimine] + O=[N+]([O-])c1cn2c(n1)OC[C@@H](OCc1ccc(OC(F)(F)F)cc1)C2 [pretomanid] + CO[C@H]1/C=C/O[C@@]2(C)Oc3c(C)c(O)c4c(O)c(c(/C=N/N5CCN(C)CC5)c(O)c4c3C2=O)NC(=O)/C(C)=C\C=C\[C@H](C)[C@H](O)[C@@H](C)[C@@H](O)[C@@H](C)[C@H](OC(C)=O)[C@@H]1C [rifampicin] | AUC25 | 0.0988 |
| NNC(=O)c1ccncc1 [isoniazid] + CC(=O)NC[C@H]1CN(c2ccc(N3CCOCC3)c(F)c2)C(=O)O1 [linezolid] + NC(=O)c1cnccn1 [pyrazinamide] | AUC25 | 0.0523 |
| O=[N+]([O-])c1cn2c(n1)OC[C@@H](OCc1ccc(OC(F)(F)F)cc1)C2 [pretomanid] + NC(=O)c1cnccn1 [pyrazinamide] + CO[C@H]1/C=C/O[C@@]2(C)Oc3c(C)c(O)c4c(O)c(c(/C=N/N5CCN(C)CC5)c(O)c4c3C2=O)NC(=O)/C(C)=C\C=C\[C@H](C)[C@H](O)[C@@H](C)[C@@H](O)[C@@H](C)[C@H](OC(C)=O)[C@@H]1C [rifampicin] | AUC25 | 0.0775 |
| COc1c(N2C[C@@H]3CCCN[C@@H]3C2)c(F)cc2c(=O)c(C(=O)O)cn(C3CC3)c12 [moxifloxacin] + NC(=O)c1cnccn1 [pyrazinamide] + CO[C@H]1/C=C/O[C@@]2(C)Oc3c(C)c(O)c4c(O)c(c(/C=N/N5CCN(C)CC5)c(O)c4c3C2=O)NC(=O)/C(C)=C\C=C\[C@H](C)[C@H](O)[C@@H](C)[C@@H](O)[C@@H](C)[C@H](OC(C)=O)[C@@H]1C [rifampicin] | AUC25 | 0.0806 |
